The values you see were collected from patent US20120207760A1.

# assay_system: Hemagglutinin of influenza A/Japan/305/57 (H2N2), on inactivated whole virions (Influenza A virus A/Japan/305/1957 …, UniProt P03451 16-562)
# assay_method_text: ELISA, B cell culture supernatant on inactivated whole virions

- binder: "TCN-526 (5084_C17) (antibody, V domains shown) VH: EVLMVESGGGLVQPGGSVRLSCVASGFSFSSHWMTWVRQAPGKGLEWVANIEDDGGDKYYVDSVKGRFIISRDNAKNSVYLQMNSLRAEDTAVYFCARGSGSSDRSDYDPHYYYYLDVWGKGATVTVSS VL: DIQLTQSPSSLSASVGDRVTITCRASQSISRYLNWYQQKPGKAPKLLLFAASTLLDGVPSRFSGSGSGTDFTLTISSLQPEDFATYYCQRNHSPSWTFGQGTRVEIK"
  OD450 (OD450): 0.07
- binder: "TCN-560 (5084_P10) (antibody, V domains shown) VH: EVQLVESGGGLVQPGGSLRLSCAASGFIFRNYWMSWVRQAPGKGLEWVANIKQDGREKYYVDSLRGRVNISRDNAENSLYLHMNSLRVEDTAVYFCARARMVVVTGDGFDVWGHGTMVTVSS VL: DIQMTQSPSSLSASVGDRVTITCRASQNIKRYFNWYQQKPGKAPKLLIYAASNLENGVPSRFSGSGSGTDFTLTISSLQPEDFATYYCQQSFSKSWTFGQGTNVDIK"
  OD450 (OD450): 2.07
- binder: "TCN-530 (5248_H10a) (antibody, V domains shown) VH: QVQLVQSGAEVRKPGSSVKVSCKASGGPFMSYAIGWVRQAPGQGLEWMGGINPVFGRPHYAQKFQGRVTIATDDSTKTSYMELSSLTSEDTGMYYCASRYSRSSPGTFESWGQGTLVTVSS VL: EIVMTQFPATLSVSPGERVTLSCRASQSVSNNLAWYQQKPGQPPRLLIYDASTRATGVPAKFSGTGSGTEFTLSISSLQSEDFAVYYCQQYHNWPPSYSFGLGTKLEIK"
  OD450 (OD450): 1.73
